Data origin: ChEMBL document CHEMBL5303304

Readings of Growth Rate for the listed compounds
system: U2OS; assay: Incucyte cell viability with U2OS; format: toxicity, cell-based; settings: human, 24 h, 10 µM, compound concentration 10 uM, replicate number 2; also: unitless GR value; below 1 slowed growth and below 0 cell loss
Could you keep your reply to the number by itself?

Worked examples, 8 compounds total:
COc1cc(-c2cn[nH]c2)ccc1C(=O)Nc1ccc2c(c1)CCNCC2.Cl; 0.63
CC(C)CNc1nc(N2CCN(CC3CCCOC3)CC2)ncc1C(=O)NCc1ccccc1 (configuration not stated); 0.79
CC1(C)CCC(CN2CCN(c3ccc(C(=O)NS(=O)(=O)c4ccc(NCC5CCOCC5)c([N+](=O)[O-])c4)c(Oc4cnc5[nH]ccc5c4)c3)CC2)=C(c2ccc(Cl)cc2)C1; 0.93
CNC(=O)c1c[nH]c2ccc(Nc3nccc(-c4ccccn4)n3)cc12; 0.94
CCCCCCCCCCCCCC(=O)O[C@@H]1[C@@H](C)[C@@]2(O)[C@@H](C=C(CO)C[C@]3(O)C(=O)C(C)=C[C@@H]23)[C@@H]2C(C)(C)[C@]12OC(C)=O [PHORBOL MYRISTATE ACETATE]; 0.72
CN1CCC[C@H]1c1cccnc1; 0.86
C[C@@H]1C[C@H](N)C[C@H](c2ccncc2NC(=O)c2ccc(F)c(-c3c(F)cccc3F)n2)C1; 0.96
CC(C)NC(=O)[C@H]1CCC[C@H]1Nc1nc(Nc2ccc(CN(C)C)cc2)ncc1Br.Cl; 0.2

Which value of Growth Rate has been reported for Cc1cc(NC(=O)c2cccc(NC(=O)/C=C/CN(C)C)c2)ccc1Nc1nccc(-c2cccnc2)n1 in the records?
0.51

Next compound up: c1cc(-c2cnn3cc(-c4ccc(N5CCNCC5)cc4)cnc23)c2cccnc2c1
-0.43

Same for COc1cc(NC(=O)c2ccc(-c3ccc(Cl)cc3)o2)cc(OC)c1
0.79

Another compound to check: Cc1cc(O)c(-c2ccc([C@@H](C)CN(C)C)cc2)c2c1[nH]c(=O)c1sccc12
-0.1
